So I've got a bunch of molecules here, and I need their fold induction at 3 µM values.
tested on: IL-2 production in primary mouse CD3+ T cells; test: Cytokine measurement: IL-2 production in mouse CD3+ T cells (ELISA); type: cell-based; details: T-cell, 3 uM compound, plate bound anti-CD3, 40 hrs, read-out: IL-2 production Fold change (3 uM)
Output spec: single numeric token, no unit.

Input: Recorded fold induction at 3 µM for O=C1CCC(N2C(=O)c3ccc(N4CCC(OCC(=O)N5CCN(c6cccc(-c7cnc8[nH]cc(CC(F)F)c8c7Cl)c6)C(=O)C5)CC4)cc3C2=O)C(=O)N1 (centres unmarked) [Example 36] , please?
Output: 3.8

Input: Recorded fold induction at 3 µM for O=C1CCC(N2Cc3cc(N4CCN(CCCS(=O)(=O)N5CCN(c6cccc(-c7cnc8[nH]cc(C9CC9)c8c7Cl)c6)C(=O)C5)CC4)ccc3C2=O)C(=O)N1 (centres unmarked) [Example 103] , please?
Output: 2.8

Input: Recorded fold induction at 3 µM for CCc1c[nH]c2ncc(-c3cccc(N4CCN(CCCN5CCC(c6ccc7c(N8CCC(=O)NC8=O)cccc7c6)CC5)CC4=O)c3)c(Cl)c12 [Example 58] , please?
Output: 2

Input: Recorded fold induction at 3 µM for O=C1CCC(N2C(=O)c3cc(F)c(N4CCN(CCCS(=O)(=O)N5CCN(c6cccc(-c7cnc8[nH]cc(C9CC9)c8c7Cl)c6)C(=O)C5)CC4)cc3C2=O)C(=O)N1 (centres unmarked) [Example 101] , please?
Output: 3.7

Input: Recorded fold induction at 3 µM for O=C1CCC(c2ccc(C3CCN(CCCS(=O)(=O)N4CCN(c5cccc(-c6cnc7[nH]cc(C8CC8)c7c6Cl)c5)C(=O)C4)CC3)cc2)C(=O)N1 (centres unmarked) [Example 102] , please?
Output: 2.6

====

system: HPK1 p-SLP-76; test: HPK1 p-SLP-76 inhibition assay in human PBMC (HTRF); assay type: cell-based; settings: 6 h compound, anti-CD3 stimulation 20 min
pIC50: −log10 of the molar value.
measurement.name: pIC50

Input: Recorded pIC50 for O=C1CCC(N2Cc3cc(N4CCN(CCCS(=O)(=O)N5CCN(c6cccc(-c7cnc8[nH]cc(C9CC9)c8c7Cl)c6)C(=O)C5)CC4)ccc3C2=O)C(=O)N1 (centres unmarked) , please?
Output: ≥ 6.52

Input: Recorded pIC50 for O=C1CCN(c2cnc3cc(C4=CCN(CCCN5CCN(c6cccc(-c7cnc8[nH]cc(C9CC9)c8c7Cl)c6)C(=O)C5)CC4)ccn23)C(=O)N1 , please?
Output: 5.52 to 6.52

Input: Recorded pIC50 for O=C1CCC(c2ccc(C3CCN(CCCCN4CCN(c5cccc(-c6cnc7[nH]cc(C8CC8)c7c6Cl)c5)C(=O)C4)CC3)cc2)C(=O)N1 (centres unmarked) , please?
Output: ≥ 6.52

Input: Recorded pIC50 for O=C1CCC(N2C(=O)c3ccc(N4CCC(OCC(=O)N5CCN(c6cccc(-c7cnc8[nH]cc(CC(F)F)c8c7Cl)c6)C(=O)C5)CC4)cc3C2=O)C(=O)N1 (centres unmarked) , please?
Output: ≥ 6.52

Input: Recorded pIC50 for CCc1c[nH]c2ncc(-c3cccc(N4CCN(C(=O)CCOCCOCCOc5cccc6c5CN(C5CCC(=O)NC5=O)C6=O)CC4=O)c3)c(Cl)c12 (centres unmarked) , please?
Output: 5.00 to 5.52

Input: Recorded pIC50 for O=C1CCC(Nc2ccc(C3CCN(CCCN4CCN(c5cccc(-c6cnc7[nH]cc(C8CC8)c7c6Cl)c5)C(=O)C4)CC3)cc2)C(=O)N1 (centres unmarked) , please?
Output: 5.52 to 6.52

Input: Recorded pIC50 for CCc1c[nH]c2ncc(-c3cccc(N4CCN(CCCN5CCC(c6ccc7c(N8CCC(=O)NC8=O)cccc7c6)CC5)CC4=O)c3)c(Cl)c12 , please?
Output: 5.52 to 6.52

Input: Recorded pIC50 for O=C1CCC(Nc2ccc(N3CCN(CCCN4CCN(c5cccc(-c6cnc7[nH]cc(C8CC8)c7c6Cl)c5)C(=O)C4)CC3)c(F)c2)C(=O)N1 (centres unmarked) , please?
Output: ≥ 6.52

Input: Recorded pIC50 for O=C1CCC(N2Cc3cc(C4=CCN(CCCN5CCN(c6cccc(-c7cnc8[nH]cc(C9CC9)c8c7Cl)c6)C(=O)C5)CC4)ccc3C2=O)C(=O)N1 (centres unmarked) , please?
Output: 5.52 to 6.52

Input: Recorded pIC50 for CCc1c[nH]c2ncc(-c3cccc(N4CCN(CCCOC5CCN(c6ccc7c(c6)C(=O)N(C6CCC(=O)NC6=O)C7=O)CC5)CC4=O)c3)c(Cl)c12 (centres unmarked) , please?
Output: 5.52 to 6.52

Input: Recorded pIC50 for O=C1CCC(N2C(=O)c3ccc(C4CCN(CCCN5CCN(c6cccc(-c7cnc8[nH]cc(C9CC9)c8c7Cl)n6)C(=O)C5)CC4)cc3C2=O)C(=O)N1 (centres unmarked) , please?
Output: ≥ 6.52

Input: Recorded pIC50 for O=C1CCC(N2Cc3cc(N4CCN(CCCN5CCN(c6cccc(-c7cnc8[nH]cc(C9CC9)c8c7Cl)c6)C(=O)C5)CC4)ccc3C2=O)C(=O)N1 (centres unmarked) , please?
Output: ≥ 6.52

Input: Recorded pIC50 for O=C1CCC(N2Cc3cc(C4=CCN(CCCN5CCN(c6cccc(-c7cnc8[nH]cc(C9CC9)c8c7Cl)n6)C(=O)C5)CC4)ccc3C2=O)C(=O)N1 (centres unmarked) , please?
Output: ≥ 6.52

Input: Recorded pIC50 for O=C1CCC(N2C(=O)c3cc(F)c(N4CCN(CCCN5CCN(c6cccc(-c7cnc8[nH]cc(C9CC9)c8c7Cl)c6)C(=O)C5)CC4)cc3C2=O)C(=O)N1 (centres unmarked) , please?
Output: 5.52 to 6.52

Input: Recorded pIC50 for O=C1CCC(N2C(=O)c3ccc(C4=CCN(CCCN5CCN(c6cccc(-c7cnc8[nH]cc(C9CC9)c8c7Cl)n6)C(=O)C5)CC4)cc3C2=O)C(=O)N1 (centres unmarked) , please?
Output: 5.52 to 6.52

Input: Recorded pIC50 for O=C1CCC(N2C(=O)c3ccc(N4CCC(COC(=O)N5CCN(c6cccc(-c7cnc8[nH]cc(C9CC9)c8c7Cl)c6)C(=O)C5)CC4)cc3C2=O)C(=O)N1 (centres unmarked) , please?
Output: < 5.00

Input: Recorded pIC50 for CCc1c[nH]c2ncc(-c3cccc(N4CCN(C(=O)CCCCCCCOc5cccc6c5CN(C5CCC(=O)NC5=O)C6=O)CC4=O)c3)c(Cl)c12 (centres unmarked) , please?
Output: 5.00 to 5.52

Input: Recorded pIC50 for O=C1CCC(c2ccc(C3CCN(CCCS(=O)(=O)N4CCN(c5cccc(-c6cnc7[nH]cc(C8CC8)c7c6Cl)c5)C(=O)C4)CC3)cc2)C(=O)N1 (centres unmarked) , please?
Output: 5.52 to 6.52

Input: Recorded pIC50 for O=C1CCC(c2ccc(OC3CCN(CCCN4CCN(c5cccc(-c6cnc7[nH]cc(C8CC8)c7c6Cl)c5)C(=O)C4)CC3)cc2)C(=O)N1 (centres unmarked) , please?
Output: 5.52 to 6.52

Input: Recorded pIC50 for Cn1nc(N2CCC(=O)NC2=O)c2ccc(C3CCN(CCCN4CCN(c5cccc(-c6cnc7[nH]cc(C8CC8)c7c6Cl)c5)C(=O)C4)CC3)cc21 , please?
Output: ≥ 6.52

Input: Recorded pIC50 for O=C1CCC(N2C(=O)c3ccc(C4=CCN(CCCN5CCN(c6cccc(-c7cnc8[nH]cc(C9CC9)c8c7Cl)c6)C(=O)C5)CC4)cc3C2=O)C(=O)N1 (centres unmarked) , please?
Output: 5.52 to 6.52

Input: Recorded pIC50 for O=C1CCN(c2cccc3cc(N4CCN(CCCN5CCN(c6cccc(-c7cnc8[nH]cc(C9CC9)c8c7Cl)n6)C(=O)C5)CC4)ccc23)C(=O)N1 , please?
Output: 5.52 to 6.52

Input: Recorded pIC50 for O=C1CCC(N2C(=O)c3ccc(C4CCN(CCCN5CCN(c6cccc(-c7cnc8[nH]cc(C9CC9)c8c7Cl)c6)C(=O)C5)CC4)cc3C2=O)C(=O)N1 (centres unmarked) , please?
Output: ≥ 6.52
